Target: TcRPI-B (Trypanosoma cruzi, UniProt A0ACM8Q8A9)
Assay: TcRPI-B coupled enzyme assay following consumption of NADH at 340 nm
Type: biochemical
Details: compound 0.2 mM; 2 mM R5P; mean of three determinations ± SD; read-out: percentage of TcRPI-B activity
metric name: activity at 200 µM (%)

O=C(Cc1ccccc1)NCCOP(=O)(O)O	98.1
O=C(CCl)NCCOP(=O)(O)O	107

(a) O=C(CI)NCCOP(=O)(O)O
(b) O=C(CBr)NCCOP(=O)(O)O
API: POST /compare with a and b ; response names the item with higher activity at 200 µM. Please identify the chosen entry by its label.
b
(b: 78.5%, a: 25.2%)

---

Tested on: TcRPE-1
Experiment: TcRPE-1 coupled enzyme assay (same reaction mixture, without TcRPI-B, 4 mM Ru5P)
Format: biochemical, Trypanosoma cruzi
Settings: compound 0.5 mM, mean of three determinations ± SD
metric name: percentage of TcRPE-1 activity (%)

O=C(CCl)NCCOP(=O)(O)O	103
O=C(Cc1ccccc1)NCCOP(=O)(O)O	91.9
O=C(CI)NCCOP(=O)(O)O	89.5
O=C(CF)NCCOP(=O)(O)O	103
O=C(CBr)NCCOP(=O)(O)O	85.8

---

Tested on: TcRPE-1
Assay: TcRPE-1 coupled enzyme assay (same reaction mixture, without TcRPI-B, 4 mM Ru5P)
Type: biochemical, Trypanosoma cruzi
Conditions: compound 0.2 mM, mean of three determinations ± SD
metric name: percentage of TcRPE-1 activity (%)

O=C(CCl)NCCOP(=O)(O)O	100
O=C(CF)NCCOP(=O)(O)O	111
O=C(CI)NCCOP(=O)(O)O	89.5
O=C(CBr)NCCOP(=O)(O)O	91.1
O=C(Cc1ccccc1)NCCOP(=O)(O)O	100

---

Target: TcRPI-B (Trypanosoma cruzi, UniProt A0ACM8Q8A9)
Experiment: TcRPI-B coupled enzyme assay following consumption of NADH at 340 nm
Assay type: biochemical
Settings: compound 1.0 mM; 2 mM R5P; mean of three determinations ± SD; read-out: percentage of TcRPI-B activity
Experimental: […] The activity of TcRPE-1 was determined in the same reaction mixture, without TcRPI-B, and replacing R5P by 4 mM ribulose 5-phosphate (Ru5P). […]
metric name: activity at 1000 µM (%)

O=C(CCl)NCCOP(=O)(O)O	98.5

(I) O=C(CBr)NCCOP(=O)(O)O
(II) O=C(CI)NCCOP(=O)(O)O
// compare measured activity at 1000 µM between I and II ; output the lower one Please identify the chosen entry by its label.
II

---

Target: TcRPI-B (Trypanosoma cruzi)
Assay: TcRPI-B coupled enzyme assay following consumption of NADH at 340 nm
Type: biochemical
Conditions: compound 2.0 mM; 2 mM R5P; mean of three determinations ± SD; read-out: percentage of TcRPI-B activity
metric name: activity at 2000 µM (%)

O=C(CCl)NCCOP(=O)(O)O [Compound D]	83.7

(1) O=C(CI)NCCOP(=O)(O)O [Compound B]
(2) O=C(CBr)NCCOP(=O)(O)O [Compound C]
(3) O=C(Cc1ccccc1)NCCOP(=O)(O)O [Compound A]
hey, can you rank those molecules up there by activity at 2000 µM? biggest number first please The labels, placed in the requested order, form the answer.
3, 2, 1
(3: 89.2%, 2: 18.3%, 1: 0%)

---

Target: TcRPI-B (Trypanosoma cruzi)
Assay: TcRPI-B coupled enzyme assay following consumption of NADH at 340 nm
Assay type: biochemical
Conditions: compound 0.5 mM; 2 mM R5P; mean of three determinations ± SD; read-out: percentage of TcRPI-B activity
metric name: activity at 500 µM (%)

O=C(CI)NCCOP(=O)(O)O [Compound B]	7.5
O=C(Cc1ccccc1)NCCOP(=O)(O)O [Compound A]	97.4

(P) O=C(CBr)NCCOP(=O)(O)O [Compound C]
(Q) O=C(CCl)NCCOP(=O)(O)O [Compound D]
API: POST /compare with P and Q ; response names the item with higher activity at 500 µM. Please identify the chosen entry by its label.
Q

---

Tested on: TcRPE-1
Test: TcRPE-1 coupled enzyme assay (same reaction mixture, without TcRPI-B, 4 mM Ru5P)
Type: biochemical, Trypanosoma cruzi
Details: compound 2.0 mM, mean of three determinations ± SD
metric name: percentage of TcRPE-1 activity (%)

O=C(CBr)NCCOP(=O)(O)O	65.1
O=C(Cc1ccccc1)NCCOP(=O)(O)O	85.9
O=C(CF)NCCOP(=O)(O)O	83.5

(1) O=C(CCl)NCCOP(=O)(O)O
(2) O=C(CI)NCCOP(=O)(O)O
API: POST /compare with 1 and 2 ; response names the item with higher percentage of TcRPE-1 activity. Please identify the chosen entry by its label.
1

---

Tested on: TcRPE-1
Assay: TcRPE-1 coupled enzyme assay (same reaction mixture, without TcRPI-B, 4 mM Ru5P)
Type: biochemical, Trypanosoma cruzi
Settings: compound 1.0 mM, mean of three determinations ± SD
metric name: percentage of TcRPE-1 activity (%)

O=C(CBr)NCCOP(=O)(O)O	77.3
O=C(Cc1ccccc1)NCCOP(=O)(O)O	87.4
O=C(CF)NCCOP(=O)(O)O	93.2
O=C(CCl)NCCOP(=O)(O)O	95.5
O=C(CI)NCCOP(=O)(O)O	103
